targetDesc: Protein farnesyltransferase (Rattus norvegicus, UniProt Q02293+Q04631)
measurementProtocol: In vitro ability to displace radiolabeled FTI from farnesyltransferase in cultured Ha-ras transformed RAT1 cells
Use IC50 to assign classes; range list: lower bin: < 40 nM; middle bin: ≥ 40 nM and < 200 nM; upper bin: ≥ 200 nM

> print(dat)
                                 smilesdata                                targetdesc   classname
1  N#Cc1ccc2cc1Oc1ccc3cccc(c3c1)NC(=O)CNC(=O)Cc1cncn1C2  Protein farnesyltransferase (Rattus norvegicus, UniProt Q02293+Q04631)  middle bin
2  CN1Cc2cncn2Cc2ccc(C#N)c(c2)Oc2ccc3cccc(c3c2)NC(=O)[C@H]1Cc1ccccc1  Protein farnesyltransferase (Rattus norvegicus, UniProt Q02293+Q04631)  middle bin
3  N#Cc1ccc2cc1Oc1ccc3cccc(c3c1)C(=O)NCCNCc1cncn1C2  Protein farnesyltransferase (Rattus norvegicus, UniProt Q02293+Q04631)   lower bin
4  N#Cc1ccc2cc1Oc1ccc3cccc(c3c1)NC(=O)[C@@H](Cc1ccccc1)NCc1cncn1C2  Protein farnesyltransferase (Rattus norvegicus, UniProt Q02293+Q04631)   lower bin
5  N#Cc1ccc2cc1Oc1ccc3cccc(c3c1)NC(=O)CNCc1cncn1C2  Protein farnesyltransferase (Rattus norvegicus, UniProt Q02293+Q04631)   lower bin
6  N#Cc1ccc2cc1Oc1ccc3cccc(c3c1)NC(=O)[C@@H](Cc1cccs1)NCc1cncn1C2  Protein farnesyltransferase (Rattus norvegicus, UniProt Q02293+Q04631)  middle bin
7  CN1C(=O)CNC(=O)Cc2cncn2Cc2ccc(C#N)c(c2)Oc2ccc3cccc1c3c2  Protein farnesyltransferase (Rattus norvegicus, UniProt Q02293+Q04631)  middle bin
8  C[C@@H]1NCc2cncn2Cc2ccc(C#N)c(c2)Oc2ccc3cccc(c3c2)NC1=O  Protein farnesyltransferase (Rattus norvegicus, UniProt Q02293+Q04631)   upper bin
9  C[C@@H]1C(=O)Nc2cccc3ccc(cc23)Oc2cc(ccc2C#N)Cn2cncc2CN1Cc1ccccc1  Protein farnesyltransferase (Rattus norvegicus, UniProt Q02293+Q04631)   upper bin

----------
targetDesc: Geranylgeranyl transferase type I (Homo sapiens, UniProt P49354+P53609)
measurementProtocol: In vitro inhibitory activity to reduce the human geranylgeranyl transferase type I (GGPTase-1)-catalyzed incorporation of 3H GGPP (100 nM) into K-Ras-derived peptide
pIC50: −log10 of the molar value.
Entries and their pIC50
quantityKind: pIC50

> print(dat)
                                 smilesdata  comparator  observedresult
1  CC[C@H]1NCc2cncn2Cc2ccc(C#N)c(c2)Oc2ccc3cccc(c3c2)NC1=O           =            6.33
2  C[C@H]1NCc2cncn2Cc2ccc(C#N)c(c2)Oc2ccc3cccc(c3c2)N(C)C1=O           =            5.50
3  CN1C(=O)CNC(=O)Cc2cncn2Cc2ccc(C#N)c(c2)Oc2ccc3cccc1c3c2           =            5.96
4  N#Cc1ccc2cc1Oc1ccc3cccc(c3c1)NC(=O)CN(Cc1ccccc1)Cc1cncn1C2           <            4.70
5  C[C@@H]1C(=O)Nc2cccc3ccc(cc23)Oc2cc(ccc2C#N)Cn2cncc2CN1Cc1ccccc1           <            4.70
6  C[C@@H]1NCc2cncn2Cc2ccc(C#N)c(c2)Oc2ccc3cccc(c3c2)NC1=O           =            5.32
7  N#Cc1ccc2cc1Oc1ccc3cccc(c3c1)NC(=O)[C@@H](Cc1cccs1)NCc1cncn1C2           =            7.14
8  N#Cc1ccc2cc1Oc1ccc3cccc(c3c1)C(=O)NCCNCc1cncn1C2           =            7.11
9  N#Cc1ccc2cc1Oc1ccc3cccc(c3c1)NC(=O)[C@@H](Cc1ccccc1)NCc1cncn1C2           =            7.18
